Data credit: the supplement of paper PMC9170038

system: MS2 coat protein; experiment: apparent KD of MS2 coat protein; designed switch direction (-1 OFF switch, 1 ON switch): -1; higher = weaker reporter binding; conditions: Eterna round: R95; input ligand: FMN 200 uM
Decision: apparent KD of MS2 coat protein >= 100 nM yields 1 (yes), all other cases yield 0 (no).

{"columns": ["monomerSequence", "cat"],
 "data": [
  ["GGUCAAGAGCAGAUCCGCGCUGCUAUUGACCGCUCAUUUACAUGAGGAUCACCCAUGUUUUUUGCUCGUCUUAUUAC [Biinedmaa] (puzzle: Sensor v3, turn-off variant 2)", "0 (no)"],
  ["GAUUAUGCGAGCUUUAGGGACAUGAGGAUCACCCAUGUUCGUCUUAUUAGUCUGAGUACACUGACAUACCUAAAUCU [JMF 62] (puzzle: Sensor v3, turn-off variant 1)", "0 (no)"],
  ["GAAAAGGUAGGAUAUACGAAAAAAAAGGGUAGAAAAAAAACACAUGAGGAUCACCCAUGUAGAAGGACCAAAAU [salish99_ex2_r3_051] (puzzle: Exclusion 2)", "0 (no)"],
  ["AUCGUGGCUCAGGAUAUCAGCCCUGUGGAGUUCUGAGAAGGGAGCACAUGAGGAUCACCCAUGUGAAAGGGUAC [Esdienar] (puzzle: Exclusion 6)", "1 (yes)"],
  ["GCAUUGAGUGUGAGGAUAUGCUGGUCCUUGGAUCAGCAGAAGGCACAUGAGGAUCACCCAUGUGAAAACAAUGC [JL bmx4 3.12] (puzzle: Brourd's mod of Exclusion 4)", "1 (yes)"]
]}

* * *

Items are presented alongside their recorded apparent KD of MS2 coat protein.
system: MS2 coat protein; test: apparent KD of MS2 coat protein, switch OFF state (with FMN for OFF switches, without FMN for ON switches); designed switch direction (-1 OFF switch, 1 ON switch): 1; higher = weaker reporter binding; details: FMN input: 0 or 200 uM; Eterna round: R93 (includes R88 designs)
quantity: apparent KD of MS2 coat protein

{"columns": ["monomerSequence", "result"],
 "data": [
  ["GGGAGACAUGAGGAUCACCCAUGUGAGAAGAGGCGAGGAUAUCGAAAGAAAGAAGAGAAACGAGAAGGCGCGAGUG [salish99-SS1-058]", "0.082 µM"],
  ["AGGAAACAUGAGGAUCACCCAUGUAAAAAUAUGGGAGGAUAUACAAACAGGAAAGUGAGAGUAGAAGGCCUAAAAG [Garnet 19]", "0.231 µM"],
  ["AAAAAACAUGAGGAUCACCCAUGUGAGAACAUGGGAGGAUAUACGAGGACGAGAGUCAAGGUAGAAGGCCUAAAAG [Garnet 73]", "0.0136 µM"],
  ["AAAAAACAUGAGGAUCACCCAUGUGCAAAAUUCGCAGGAUAUUUCUCAAUUAAAUGAGAGGAAGAAGGGUGAAAAA [Nob's Hobby 27 - Jieux - Same State 1]", "0.0993 µM"],
  ["AAAAAACAUGAGGAUCACCCAUGUAAAAAAAUGGGAGGAUAUACAAAAACGAAAGAAAAAGUAGAAGGCCUGAAAA [same state 7]", "0.159 µM"],
  ["AUAAUACAUGAGGAUCACCCAUGUCAAGGCUAUCAAGGAUAUAGACAACGUAGCGGUUGACUAGAAGGUGAGAAAU [Onxeanis]", "0.0788 µM"],
  ["AAAAACACAGUGCAGGAUAUGGUAAUAGUCACAUGAGGAUCACCCAUGUUCUUUUAUAAGAACGAUCAGAAGGGCGGUGAAAAAA [Mat - Same state - Malcolm Mod - D114]", "0.155 µM"],
  ["GAUAGGAAGAGAGAGGAUAUCCAAAGGAAAACAUGAGGAUCACCCAUGUAAAAGGUAGGAAAUUGGGAGAAGGCUCAAGAGAGAG [salish99-ss2-075]", "0.0319 µM"],
  ["AAAAGACAUGAGGAUCACCCAUGUAAAGACAUGAGAGGAUAUGCAUGGAAAACAUGCUGUGCAGAAGGCUCAUGUC [SS1 - 17]", "0.0226 µM"],
  ["AGAAAUAAAAGGCAGGAUAUCCAAAAGAAAACAUGAGGAUCACCCAUGUAAAAGAAAAAAAAAUGGGAGAAGGGCCAAAUAAAGA [Mat - Same State 2 - Eli mod - D90]", "0.0214 µM"],
  ["AAGAAACAUGAGGAUCACCCAUGUGAUAAUAUGGGAGGAUAUACAAAGACGAAAGACGAAGUAGAAGGCCUAUGAA [Garnet 44]", "0.124 µM"],
  ["UGGAGACAUGAGGAUCACCCAUGUGAGAAGAGGCGAGGAUAUCGAAAGAAAGAAGAGAAACGAGAAGGCGCGAGGU [salish99-SS1-036]", "0.0496 µM"],
  ["CCGAUGGUAUACUAGGAUAUGGGCGCCCUUACAUGAGGAUCACCCAUGUUAUCACAAAUCCGCGGCCAGAAGGAGUUCAUGGGAG [Ustiririra]", "0.151 µM"]
]}

* * *

system: MS2 coat protein; assay: apparent KD of MS2 coat protein; designed switch direction (-1 OFF switch, 1 ON switch): -1; higher = weaker reporter binding; settings: input ligand: FMN 200 uM
Decision: apparent KD of MS2 coat protein >= 300 nM yields true, all other cases yield false.

{"columns": ["monomerSequence", "cat"],
 "data": [
  ["CCCUCAAGCGAGGAUAUAAAUGCGCAUUCGCGGUUAGAAGGCGCUACAUGAGGAUCACCCAUGUAAUUGAAUGG [jl-ex6-4.52 ViennaUCT mod] (Eterna round: R97, puzzle: Exclusion 6)", "false"],
  ["CCUCUACAUGAGGAUCACCCAUGUCAGGAUAUGCGAAUUUCAUCAAAAGAUGAAAUUUGCAGAAGGGACUAAGC [Omei Ex1 A34] (Eterna round: R97, puzzle: Exclusion 1)", "false"],
  ["GAGAGAGCCAUAGGAUAUGCCCGCCCGCUUGCGGCAGAAGGAUGUUGACAUGAGGAUCACCCAUGUGGAUCGCCCAUGUUUGUG [All by luck] (Eterna round: R96, puzzle: Exclusion NG 1)", "true"],
  ["AAACAAACGGGAGGAUAUCGACAUAUUCAACUGCGAGAAGGCCCAAAAGACAUGAGGAUCACCCAUGUAAACCGGGUGAGAAAU [Rimabi] (Eterna round: R96, puzzle: Exclusion NG 1)", "true"],
  ["GCGGACUUGAACGUGAGUUCAGAGACAUGAGGAUCACCCAUGUAGGAUAUCGAUUCGAAACGAAUCGAGAAGGGCAUGGUCCGC [JL denovo 14] (Eterna round: R96, puzzle: Exclusion NG 3)", "false"]
]}

* * *

test system: MS2 coat protein; assay: apparent KD of MS2 coat protein, switch OFF state (with FMN for OFF switches, without FMN for ON switches); designed switch direction (-1 OFF switch, 1 ON switch): -1; higher = weaker reporter binding; settings: FMN input: 0 or 200 uM; Eterna round: R93 (includes R88 designs)
Items are presented alongside their recorded apparent KD of MS2 coat protein.

{"columns": ["monomerSequence", "apparent KD of MS2 coat protein [nM]"],
 "data": [
  ["GGUUGGCGAGGAUAUACAUGAGGAUCACCCAUGUGAGAGAAAAAAGUGAGAAAGAACAGUAGAAGGCGCUGACG [salish99-ex3-29]", 72.8],
  ["AAAAAGGCAGGAUAUACGUACAUGUCAAAAGACGUGAAGGGACAUGAGGAUCACCCAUGUAGAAGGGUCAAGAA [JL Stem Breaker 19]", 61.9],
  ["AAAAAUCGAGGAUAUACAUGAGGAUCACCCAUGUUGGAAAACGAUUACACAAAAGAAAGUAGAAGGCGAUAAAA [Ex 3 May 21]", 24.7],
  ["UAUAGACAUGAGGAUCACCCAUGUGAGGAUAUCGGUAACUACAAAACAUCACAUACAACGAGAAGGCACAGAAA [JR_Exc001_Sub013]", 35.1]
]}

* * *

Items are presented alongside their recorded apparent KD of K4 kissing-loop reporter.
test system: K4 kissing-loop RNA reporter; experiment: apparent KD of K4 kissing-loop reporter; higher = weaker reporter binding; settings: Eterna round: R107; input ligand: FMN 200 uM;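 further: bound reporter read as fluorescence of individual clusters on recovered sequencing chips by microscopy, with normalized cluster intensities fitted with a binding model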

{"columns": ["monomerSequence", "valueUnit", "apparent KD of K4 kissing-loop reporter"],
 "data": [
  ["CGGGAAUUAGGUAUCGUCGAAAGCAAGAACCGAGGACCGGUACGGCCGCCACUCGCACCAGUGAUGUUGGUACAUUUGGUAUCCG [theeternabot_sameState_KL_Trp_A_31]", "nM", 115],
  ["AGGGAUGUUAAAGGAUAUAGAAAGUGAUGUUAGAAAGUGAGUGAUGUUGAUGUAAGUGAUGAUAUGUUAGAAGGUUAACAAAACG [abc]", "nM", 212],
  ["UGACUGGACUGAAGGAGCGUGGAAGGAGCGUAAGUAGUGAUGUUGCUUACAGGUAGGUCGCCGCAGGUAGGUCGCAGUCUAGUCU", "nM", 62.5],
  ["AAAAUAAAUCAGUGAUGUUGGUAUCUGGAUACCAGCGAUAAUCAUCGCCCUUGGCAGCCAUGGACGUACAAAAUAAGUACGUCCU [MatMod 17 - Jieux - Same State - Theophylline A]", "nM", 242],
  ["UUUUUUAGUUGAGUUAUACAUAGCGGACUAUAGGAUAUCUAGAAAUAGAGAAGGAUAAGAGUGAUGUUCUUAUUCAACUAUAGUG", "nM", 101],
  ["CAACGAGUGAUGGUCGUUGACGGCCAUCCCGAGGAUAUGGGAUUAUCCAGAAGGCGGGAUCGCCGGGAGUGAUGUUCCCUGAUCA [Same State FMN A GF 14]", "nM", 139]
]}
